Protocol: NCI Yeast Anticancer Drug Screen. Data for the rad18 strain (AID 177)
Protocol Conditions: S. cerevisiae rad18 mutant growth inhibition; at 3.7 µM; stronger effect = higher value
About 79,000 compounds went through this panel and 15% of them were active in at least one assay; those are over-represented in the sample as a whole.
Hi, to clarify the labels: True covers growth inhibition from 1% upward, False covers anything below 1%.

Req: Form field: growth inhibition at least 1%? Entry: C/C(=N\Nc1ccc([N+](=O)[O-])cc1[N+](=O)[O-])c1sc(-n2nc(-c3ccccc3)cc2-c2ccccc2)nc1C
Resp: True

Req: Form field: growth inhibition at least 1%? Entry: Brc1ccccc1-c1ncc(-c2ccccc2)o1
Resp: False

Req: Form field: growth inhibition at least 1%? Entry: O=[N+]([O-])/C=C/c1cc(Cl)c(/C=C/[N+](=O)[O-])cc1Cl
Resp: True

Req: Form field: growth inhibition at least 1%? Entry: O=C1c2ccccc2C(=O)N1CCCC(=O)n1cc(F)c(=O)[nH]c1=O
Resp: True

* * *

Give growth inhibition for every item shown.
Protocol: NCI Yeast Anticancer Drug Screen. Data for the rad18 strain (AID 177)
Protocol Conditions: S. cerevisiae rad18 mutant growth inhibition; at 100.0 µM; stronger effect = higher value
This is part of a sample that, as a whole, favours compounds with a hit. Of some 79,000 tested, about 15% had one in any assay.
The answer is to be given in %; state only the numeric part.

Req: Entry Cc1nc2ccc(N=NN(C)C)cc2[nH]1 needs its growth inhibition filled in; supply it.
Resp: 98

Req: Entry Cc1nc(-c2cc3cc([N+](=O)[O-])ccc3oc2=O)cs1 needs its growth inhibition filled in; supply it.
Resp: 94

Req: Entry CNC(=O)OCc1c(COC(=O)NC)c2n(c1C)-c1ccc(OC)cc1CCC2 needs its growth inhibition filled in; supply it.
Resp: 98

Req: Entry CCN(CC)CCNc1ccc2ncn3c4cc(OC)c(OC)c(=O)c4c(O)c1c23 needs its growth inhibition filled in; supply it.
Resp: 1

Req: Entry CCn1c(O)c(C=Nc2ccccc2)s/c1=N/Nc1nc(-c2ccccc2)cs1 needs its growth inhibition filled in; supply it.
Resp: -12

Req: Entry COc1ccc(/C=C/C(=O)c2ccccc2)cc1OC needs its growth inhibition filled in; supply it.
Resp: 95

Req: Entry O=c1c2ccccc2nc(-c2ccccc2)n1O needs its growth inhibition filled in; supply it.
Resp: 97

Req: Entry Cc1c(C(C)C)cc(OCCO)cc1C(C)C needs its growth inhibition filled in; supply it.
Resp: 65

Req: Entry O=C(NNc1ccccc1)c1ccc(Cl)c(Cl)c1 needs its growth inhibition filled in; supply it.
Resp: 88

Req: Entry CC(C)(C)N=C(NO)c1ccccc1 needs its growth inhibition filled in; supply it.
Resp: 82

Req: Entry C=C1CCC(O)C/C1=C/C=C1\CCCC2(C)C1CCC2C(C)CCCC(C)C (configuration not stated) needs its growth inhibition filled in; supply it.
Resp: 34

Req: Entry COC(=O)/C=C(/C(=O)OC)C(Cl)(Cl)Cl needs its growth inhibition filled in; supply it.
Resp: 99

* * *

Protocol: NCI Yeast Anticancer Drug Screen. Data for the mlh1 rad18 strain (AID 175)
Protocol Conditions: S. cerevisiae mlh1 rad18 strain growth inhibition; at 50.0 µM
Compounds without any hit were thinned out: in the full panel of roughly 79,000, 15% have a hit. The source made the active and inactive calls. Rule as the data show it: active = growth inhibition above about 70%; inactive = the rest.
Outcome field: choose from active, inactive

Req: Dear all, I need the recorded test outcome for CCOC1=C/C(=N\Nc2ccc([N+](=O)[O-])cc2)CCC1 , thank you.
Resp: inactive

Req: Dear all, I need the recorded test outcome for COC(=O)/C=C(/C(=O)OC)C(Cl)(Cl)Cl , thank you.
Resp: inactive

Req: Dear all, I need the recorded test outcome for Oc1ccc2ccccc2c1CCc1c(O)ccc2ccccc12 , thank you.
Resp: active

Req: Dear all, I need the recorded test outcome for COc1ccc(C/C=N/Nc2ccc([N+](=O)[O-])cc2)cc1OC , thank you.
Resp: active

Req: Dear all, I need the recorded test outcome for CN(C)c1ccc2c(SCC(=O)OCC(=O)[C@@]3(O)CC[C@H]4[C@@H]5CCC6=CC(=O)C=C[C@]6(C)[C@H]5C(=O)C[C@@]43C)c3ccc(N(C)C)cc3nc2c1 , thank you.
Resp: active
